# Tested on: Tyrosine-protein kinase ABL1 (Homo sapiens), P00519 [M351T]
# measurement-parameters: at 0.1 µM
measurement-type: inhibition (%)
Field: numeric (%). Do not append units.

**Query** Please state recorded inhibition (tested on Tyrosine-protein kinase ABL1 (Homo sapiens), P00519 [M351T]) of CC(=O)Nc1cccc(C#Cc2cncnc2Nc2ccc(OCc3cccc(F)c3)c(Cl)c2)c1
**Result** 1.83

**Query** Try the molecule CS(=O)(=O)CCNCc1ccc(-c2ccc3ncnc(Nc4ccc(OCc5ccccc5)c(C(F)(F)F)c4)c3c2)o1
**Result** 0.91

**Query** Same lookup for CN(C)CCOc1ccc(-c2nc(-c3ccncc3)c(-c3ccc4c(c3)CC/C4=N\O)[nH]2)cc1 , please.
**Result** 6.36

**Query** Then Cc1ccc2c(-c3ccnc(Nc4ccccc4)n3)c(-c3ccc(F)cc3)nn2n1 ?
**Result** 15.1

**Query** CCn1c(-c2nonc2N)nc2ccccc21 ?
**Result** 2.29

**Query** Please do the same for CC(C)(CO)CNC(=O)c1ccc2c(c1)/C(=N/Nc1ccc(S(N)(=O)=O)cc1)C(=O)N2 as well.
**Result** -0.43

**Query** // query: COC(=O)Nc1nc2ccc(S(=O)(=O)c3ccc(NC(=O)Nc4cc(C(F)(F)F)ccc4F)cc3)cc2[nH]1
**Result** 0.84

**Query** Follow-up item: Fc1cccc(COc2ccc(Nc3ncnc4sc(-c5ccco5)cc34)cc2Cl)c1
**Result** 0.31

**Query** What do you get for CCOc1ccc2c(-c3ccnc(Nc4cccc(C(F)(F)F)c4)n3)cnn2n1 ?
**Result** 0.25

**Query** Please do the same for CC(=O)NCc1cccc(C#Cc2cncnc2Nc2ccc(OCc3cccc(F)c3)c(Cl)c2)c1 as well.
**Result** 1.1

**Query** Cc1ccc(O)cc1Nc1ccnc2cc(-c3ccccn3)ccc12 ?
**Result** 93.6

**Query** Now this one: COc1ccc(-c2oc3ncnc(N)c3c2-c2ccc(NC(=O)Nc3cc(C(F)(F)F)ccc3F)cc2)cc1
**Result** 34.6

**Query** Next: CCN(CC)S(=O)(=O)c1ccc(OC)c(Nc2ncc(-c3ccccc3)o2)c1
**Result** 6.41

**Query** How about this molecule: Fc1ccc(-c2nn3ncccc3c2-c2ccnc(Nc3ccc4c(c3)OCCO4)n2)cc1
**Result** 38.6

====

# tested-on: Muscle, skeletal receptor tyrosine-protein kinase (Homo sapiens) (UniProt O15146)
# Sequence (whole entry): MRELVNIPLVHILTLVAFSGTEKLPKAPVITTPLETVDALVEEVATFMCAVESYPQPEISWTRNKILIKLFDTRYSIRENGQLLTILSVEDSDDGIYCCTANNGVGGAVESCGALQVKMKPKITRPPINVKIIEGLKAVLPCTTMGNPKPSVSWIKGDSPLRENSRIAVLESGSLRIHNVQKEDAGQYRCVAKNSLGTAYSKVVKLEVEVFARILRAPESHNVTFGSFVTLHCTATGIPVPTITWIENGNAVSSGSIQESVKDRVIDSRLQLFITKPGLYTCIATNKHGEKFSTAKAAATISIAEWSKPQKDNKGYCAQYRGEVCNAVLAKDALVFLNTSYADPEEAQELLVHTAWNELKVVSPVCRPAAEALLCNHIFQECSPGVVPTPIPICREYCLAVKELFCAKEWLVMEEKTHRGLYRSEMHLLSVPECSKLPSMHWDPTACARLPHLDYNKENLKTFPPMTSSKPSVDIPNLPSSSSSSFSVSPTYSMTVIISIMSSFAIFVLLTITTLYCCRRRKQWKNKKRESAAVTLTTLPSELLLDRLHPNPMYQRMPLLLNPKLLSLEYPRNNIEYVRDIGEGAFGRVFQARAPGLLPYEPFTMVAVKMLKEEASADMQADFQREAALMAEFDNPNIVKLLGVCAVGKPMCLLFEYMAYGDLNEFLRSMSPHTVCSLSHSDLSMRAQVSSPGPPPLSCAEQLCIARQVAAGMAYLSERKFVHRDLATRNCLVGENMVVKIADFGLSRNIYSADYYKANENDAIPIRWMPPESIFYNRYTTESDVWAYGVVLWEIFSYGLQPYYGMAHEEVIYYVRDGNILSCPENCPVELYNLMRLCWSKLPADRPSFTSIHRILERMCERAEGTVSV
# measurement-parameters: at 0.1 µM
measurement-type: inhibition (%)
Response body: numeric value in %, unit text excluded.

These recorded examples may help you get a feel for the data.
| compound-structure | inhibition [%] |
| --- | --- |
| c1ccc(-c2nc3n(c2-c2ccc4c(c2)OCO4)CCC3)nc1 | 0.55 |
| CCn1c(-c2nonc2N)nc2cnc(Oc3cccc(NC(=O)c4ccc(N(C)C)cc4)c3)cc21 | 2.84 |

**Query** Give Muscle, skeletal receptor tyrosine-protein kinase (Homo sapiens) (UniProt O15146) inhibition for N#Cc1c(NC(=O)CN2CCOCC2)sc2c1CCCC2
**Result** 2.41

**Query** Same for CC(C)(CO)CNC(=O)c1ccc2c(c1)/C(=N/Nc1ccc(S(N)(=O)=O)cc1)C(=O)N2
**Result** 3.03

**Query** // next record COC(=O)c1sc(-n2cnc3cc(OC)c(OC)cc32)cc1OCc1ccccc1C(F)(F)F
**Result** 15.4

**Query** Next entry: CC(C)COC(=O)c1ccc2c(c1)/C(=C/Nc1ccc(S(N)(=O)=O)cc1)C(=O)N2
**Result** 7.69

**Query** // query: Fc1ccc(-c2cc(-c3c[nH]nc3-c3ccccn3)ccn2)cc1
**Result** 2.06

Where do these numbers come from? They come from ChEMBL document CHEMBL1961873.
